Measured pIC50 by item
System Name: C5a receptor (Homo sapiens)
Sequence (P21730 1-350): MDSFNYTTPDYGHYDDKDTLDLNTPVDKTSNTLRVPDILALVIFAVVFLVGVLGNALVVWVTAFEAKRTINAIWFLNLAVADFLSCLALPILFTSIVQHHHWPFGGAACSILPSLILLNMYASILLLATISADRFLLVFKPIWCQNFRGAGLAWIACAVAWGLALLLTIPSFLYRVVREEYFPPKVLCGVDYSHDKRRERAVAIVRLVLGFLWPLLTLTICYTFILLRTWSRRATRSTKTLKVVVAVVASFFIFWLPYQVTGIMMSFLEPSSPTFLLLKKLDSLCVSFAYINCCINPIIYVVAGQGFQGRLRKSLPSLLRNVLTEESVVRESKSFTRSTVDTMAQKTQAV
Protocol Summary: Calcium Mobilization Assay (C5a-induced Ca2+ mobilization, FLIPR, differentiated U937 cells)
Condition Description: […] recombinant human C5a, 20 min pre-incubation, multiple values = duplicate experiments, read-out: C5a Induced Ca Mobil. Average IC50
Units for pIC50: none; it is -log10 of a concentration expressed in mol/L.

Example cases with answers are listed next.
CCN(c1cccc2ccccc12)C1CCCc2nc(-c3c(OC)cccc3OC)cc(OC)c21 (centres unmarked) [Compound 58]
5.75
CCc1cccc(CC)c1-c1cc(OC)c2c(n1)CCCC2N(C)c1ccc(OC)c2ccccc12 (centres unmarked) [Compound 36]
6.27
CCc1ccccc1NC1CCCc2nc(-c3c(CC)cccc3CC)cc(OC)c21 (centres unmarked) [Compound 41]
6.14
CCc1cccc(CC)c1-c1cc(OC)c2c(n1)CCCC2N(C)c1cccc2ccccc12 (racemic) [Compound 20]
6.78

# evaluate next
# lookup: pIC50 of CCc1cccc(CC)c1-c1cc(OC2CCCC2)c2c(n1)CCCC2Nc1cc(OC)ccc1C (centres unmarked) [Compound 17]
6.87

###

System Name: C5a receptor (Homo sapiens)
Protocol Summary: Calcium Mobilization Assay (C5a-induced Ca2+ mobilization, FLIPR, differentiated U937 cells)
Condition Description: […] recombinant human C5a, 20 min pre-incubation, multiple values = duplicate experiments, read-out: C5a Induced Ca Mobil. Average IC50
Values of IC50 strictly less than 800 nM map to true (1), and values of at least 800 nM map to false (0).

CCc1cccc(CC)c1-c1cc(OC)c2c(n1)CCCC2Oc1cccc2ccccc12 (stereo not drawn)
false (0)

IC50 under 800 nM? Item: CCc1cccc(CC)c1-c1cc(OC)c2c(n1)CCCC2N(C)Cc1ccccc1 (stereo not drawn)
false (0)

Proceed to CCc1cccc(CC)c1-c1cc(OC(C)C)c2c(n1)CCCC2Nc1ccccc1CCO (stereo not drawn)
true (1)

Proceed to CCc1cccc(CC)c1-c1cc(OC)c2c(n1)CCCC2N(C)c1cc(Cl)ccc1C (stereo not drawn)
false (0)

Proceed to CCc1cccc(CC)c1-c1cc(OC)c2c(n1)CCCC2Nc1ccc(Cl)cc1CO (stereo not drawn)
true (1)

Proceed to CCc1cccc(CC)c1-c1cc(Cl)c2c(n1)CCCC2N(CC)c1cccc2ccccc12 (stereo not drawn)
false (0)

Proceed to CCc1cccc(CC)c1-c1cc(OC)c2c(n1)CCCC2N(C)c1cc(C)ccc1C (stereo not drawn)
true (1)

Proceed to CCc1cccc(CC)c1-c1cc(OC)c2c(n1)CCCC2N(CC)c1ncnc2ccccc12 (stereo not drawn)
false (0)

Proceed to CCc1cccc(CC)c1-c1cc(OCc2ccccc2)c2c(n1)CCCC2N(CC)c1cccc2ccccc12 (stereo not drawn)
true (1)

Proceed to CCc1cccc(CC)c1-c1cc(OC)c2c(n1)CCCC2N(C)c1cc(OC)ccc1OC (stereo not drawn)
false (0)

Proceed to CCN(c1cccc2ccccc12)C1CCCc2nc(-c3ccccc3F)cc(OC)c21 (stereo not drawn)
false (0)

###

Measured log10 of IC50 by item
System Name: C5a receptor (Homo sapiens, UniProt P21730)
Protocol Summary: Calcium Mobilization Assay (C5a-induced Ca2+ mobilization, FLIPR, differentiated U937 cells)
Condition Description: […] recombinant human C5a, 20 min pre-incubation, multiple values = duplicate experiments, read-out: C5a Induced Ca Mobil. Average IC50
Base-10 log of IC50, unit nM.

Example cases with answers are listed next.
CCc1cccc(CC)c1-c1cc(OC)c2c(n1)CCCC2Oc1ccccc1CCO (centres unmarked) [Compound 64]
3.38
CCc1cccc(CC)c1-c1cc(OC)c2c(n1)CCCC2N(C)c1ccccc1 (centres unmarked) [Compound 82]
3.90
CCc1cccc(CC)c1-c1cc(OC)c2c(n1)CCCC2Nc1ccccc1C(=O)O (centres unmarked) [Compound 33]
2.62
CCc1cccc(CC)c1-c1cc(OC2CCCC2)c2c(n1)CCCC2N(CC)c1cccc2ccccc12 (centres unmarked) [Compound 6]
1.57

# evaluate next
Give C5a receptor (Homo sapiens, UniProt P21730) log10 of IC50 for COc1cc(-c2c(C)cccc2C)nc2c1C(N(C)c1cccc3ccccc13)CCC2 (centres unmarked) [Compound 61]
3.34

###

Measured pIC50 by item
System Name: C5a receptor (Homo sapiens, UniProt P21730)
Protocol Summary: Calcium Mobilization Assay (C5a-induced Ca2+ mobilization, FLIPR, differentiated U937 cells)
Condition Description: […] recombinant human C5a, 20 min pre-incubation, multiple values = duplicate experiments, read-out: C5a Induced Ca Mobil. Average IC50
Units for pIC50: none; it is -log10 of a concentration expressed in mol/L.

Example cases with answers are listed next.
CCc1cccc(CC)c1-c1cc(OC)c2c(n1)CCCC2Nc1cc(-c2ccccc2)ccc1C (stereo not drawn) [Compound 66]
5.61
CCc1cccc(CC)c1-c1cc(OC)c2c(n1)CCCC2Nc1cc(OC)ccc1OC (stereo not drawn) [Compound 34]
6.38
CCN(c1cccc2ccccc12)C1CCCc2nc(-c3cccc4ccccc34)cc(OC)c21 (stereo not drawn) [Compound 78]
5.23
CCc1cccc(CC)c1-c1cc(OCCN(C)C)c2c(n1)CCCC2Nc1cc(OC)ccc1C (stereo not drawn) [Compound 62]
5.63
CCc1cccc(CC)c1-c1cc(OC)c2c(n1)CCCC2Nc1cc(C(F)(F)F)ccc1CO (stereo not drawn) [Compound 2]
7.66
CCc1cccc(CC)c1-c1cc(OC)c2c(n1)CCCC2Nc1ccccc1C#N (stereo not drawn) [Compound 74]
5.31

# lookup: pIC50 of CCc1cccc(CC)c1-c1cc(OC)c2c(n1)CCCC2N(CC)c1cccc2c1CCCC2 (stereo not drawn) [Compound 24]
6.67

###

Measured inhibition at 10 µM by item
System Name: UniProt:P21730
Sequence (P21730 1-350): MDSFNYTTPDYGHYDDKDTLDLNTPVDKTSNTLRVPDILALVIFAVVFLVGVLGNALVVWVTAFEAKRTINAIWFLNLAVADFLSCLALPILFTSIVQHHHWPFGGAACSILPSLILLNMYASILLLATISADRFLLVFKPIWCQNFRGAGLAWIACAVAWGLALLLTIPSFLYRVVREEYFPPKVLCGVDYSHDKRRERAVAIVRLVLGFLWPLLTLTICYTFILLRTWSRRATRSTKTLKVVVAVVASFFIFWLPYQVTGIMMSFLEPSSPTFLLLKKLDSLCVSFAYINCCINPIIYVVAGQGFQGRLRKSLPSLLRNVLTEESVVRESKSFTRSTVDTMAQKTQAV
Protocol Summary: [125I]-C5a Radioligand Binding Assay (competition binding, differentiated U937 cells);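 note: cells preincubated with compound 30 min at room temperature, then 60 min at 4 °C with radioligand, bound counts read by scintillation, nonspecific binding defined with 100 nM C5a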
Condition Description: read-out: [125I]-C5a Binding % Inhibition 10 μM, test compound 10 μM; [125I]-C5a 0.05 nM; U937 cells; multiple values = duplicate experiments
Dear colleague, please return just the value in %, with no unit written.

CCc1cccc(CC)c1-c1cc(OC)c2c(n1)CCC[C@H]2N(CC)c1cccc2ccccc12 [Compound 4]
95
COc1cc(-c2c(C)cccc2C)nc2c1C(N(C)c1c(C)cccc1C)CCC2 (stereo not drawn) [Compound 114]
73

Give UniProt:P21730 inhibition at 10 µM for CCN(c1cccc2ccccc12)C1CCCc2nc(-c3ccccc3C(C)C)cc(OC)c21 (stereo not drawn) [Compound 57]
89

Proceed to CCc1cccc(CC)c1-c1cc(OC)c2c(n1)CCCC2N1CCCC1 (stereo not drawn) [Compound 126]
18

Proceed to CCc1cccc(CC)c1-c1cc(OC)c2c(n1)CCCC2Nc1cccc(OC)c1 (stereo not drawn) [Compound 81]
71

Proceed to CCc1cccc(CC)c1-c1cc(OC)c2c(n1)CCCC2N(C)c1cc(Cl)ccc1C (stereo not drawn) [Compound 67]
86

Proceed to CCc1cccc(CC)c1-c1cc(OC)c2c(n1)CCCC2N(CC)Cc1ccccc1 (stereo not drawn) [Compound 85]
75

Proceed to CCc1cccc(CC)c1-c1cc(OC)c2c(n1)CCCC2N(C)c1c(C)ccc2ccccc12 (stereo not drawn) [Compound 52]
86

Proceed to CCc1cccc(CC)c1-c1cc(OC)c2c(n1)CCCC2Nc1ccccc1CCO (stereo not drawn) [Compound 5]
97

Proceed to CCN(c1cccc2ccccc12)C1CCCc2nc(-c3c(C)cccc3C)cc(OC)c21 (stereo not drawn) [Compound 16]
90

Proceed to CCc1cccc(CC)c1-c1cc(OC)c2c(n1)CCCC2Nc1ccccc1C#N (stereo not drawn) [Compound 74]
52

Proceed to CCc1cccc(CC)c1-c1cc(OC)c2c(n1)CCCC2N(C(C)=O)c1cccc2ccccc12 (stereo not drawn) [Compound 79]
78

Proceed to CCc1cccc(CC)c1-c1cc(OC)c2c(n1)CCCC2Nc1cc(Cl)ccc1C (stereo not drawn) [Compound 53]
91

Proceed to CCc1cccc(CC)c1-c1cc(OC)c2c(n1)CCCC2N1CCc2c(Cl)cccc2C1 (stereo not drawn) [Compound 56]
85

Proceed to COc1ccc(C)c(NC2CCCc3nc(-c4c(C)cccc4C)cc(OC)c32)c1 (stereo not drawn) [Compound 37]
86

Proceed to COc1cc(-c2c(C)cccc2C)nc2c1C(Oc1cc(C(C)C)ccc1C)CCC2 (stereo not drawn) [Compound 111]
85

Proceed to CCc1cccc(CC)c1-c1cc(OC)c2c(n1)CCCC2N1CCc2c(cccc2C(=O)O)C1 (stereo not drawn) [Compound 129]
-20
